- target-or-system: c-kit (Homo sapiens)
- Construct: MO7e (human megakaryocytic leukemia cell line) which had been arrested for 20 hr; endogenous in cells; host or cells: MO7e human megakaryocytic leukemia cell line
- method: Inhibitory activity against c-kit autophosphorylation (MO7e cells, h-SCF)
- Assay type: cell-based
- condition-context: Mo7e, figure within parentheses in −( ) or >1000( ); at 1000 nM
result-type: inhibition at 1 µM (%)

Solved cases below.
C#CCC(CC)OC(=O)N(C)c1ccc(Oc2ccnc3cc(OC)c(OC)cc23)cc1 (centres unmarked); 32
COc1cc2ncnc(Oc3ccc(OCC(=O)N4CCC(N5CCCCC5)CC4)cc3)c2cc1OC; 35
COc1cc2nccc(Oc3ccc(NC(=S)NC(=O)C(C)Oc4ccccc4Cl)cc3Cl)c2cc1OC (centres unmarked); 19
CCCCN(CCCC)CCNC(=O)Nc1ccc(Oc2ncnc3cc(OC)c(OC)cc23)cc1Cl; 19
COc1cc2ncnc(Oc3ccc(NC(=S)NCCN(C(C)C)C(C)C)cc3)c2cc1OC; 27
COc1ccccc1COC(=O)N(C)c1ccc(Oc2ncnc3cc(OC)c(OC)cc23)cc1Cl; 28

(A) COc1cc2nccc(Oc3cc(C)c(NC(=S)NCCN(C(C)C)C(C)C)cc3C)c2cc1OC
(B) COc1cc2ncnc(Oc3ccc(NC(=S)NN4CCCCC4)cc3)c2cc1OC
(C) COc1cc2nccc(Oc3ccc(NC(=O)NC4CCN(Cc5ccccc5)CC4)cc3F)c2cc1OC
(D) COc1cc2ncnc(Oc3ccc(NC(=S)NCCN(C)C)cc3)c2cc1OC
Sort the 4 compounds by inhibition at 1 µM; largest first, smallest last. Would you mind listing the labels in the order requested?
A, B, C, D

* * *

- target-or-system: c-kit (Homo sapiens, UniProt P10721)
- Construct: MO7e (human megakaryocytic leukemia cell line) which had been arrested for 20 hr; endogenous in cells; host or cells: MO7e human megakaryocytic leukemia cell line
- Sequence (P10721 26-976): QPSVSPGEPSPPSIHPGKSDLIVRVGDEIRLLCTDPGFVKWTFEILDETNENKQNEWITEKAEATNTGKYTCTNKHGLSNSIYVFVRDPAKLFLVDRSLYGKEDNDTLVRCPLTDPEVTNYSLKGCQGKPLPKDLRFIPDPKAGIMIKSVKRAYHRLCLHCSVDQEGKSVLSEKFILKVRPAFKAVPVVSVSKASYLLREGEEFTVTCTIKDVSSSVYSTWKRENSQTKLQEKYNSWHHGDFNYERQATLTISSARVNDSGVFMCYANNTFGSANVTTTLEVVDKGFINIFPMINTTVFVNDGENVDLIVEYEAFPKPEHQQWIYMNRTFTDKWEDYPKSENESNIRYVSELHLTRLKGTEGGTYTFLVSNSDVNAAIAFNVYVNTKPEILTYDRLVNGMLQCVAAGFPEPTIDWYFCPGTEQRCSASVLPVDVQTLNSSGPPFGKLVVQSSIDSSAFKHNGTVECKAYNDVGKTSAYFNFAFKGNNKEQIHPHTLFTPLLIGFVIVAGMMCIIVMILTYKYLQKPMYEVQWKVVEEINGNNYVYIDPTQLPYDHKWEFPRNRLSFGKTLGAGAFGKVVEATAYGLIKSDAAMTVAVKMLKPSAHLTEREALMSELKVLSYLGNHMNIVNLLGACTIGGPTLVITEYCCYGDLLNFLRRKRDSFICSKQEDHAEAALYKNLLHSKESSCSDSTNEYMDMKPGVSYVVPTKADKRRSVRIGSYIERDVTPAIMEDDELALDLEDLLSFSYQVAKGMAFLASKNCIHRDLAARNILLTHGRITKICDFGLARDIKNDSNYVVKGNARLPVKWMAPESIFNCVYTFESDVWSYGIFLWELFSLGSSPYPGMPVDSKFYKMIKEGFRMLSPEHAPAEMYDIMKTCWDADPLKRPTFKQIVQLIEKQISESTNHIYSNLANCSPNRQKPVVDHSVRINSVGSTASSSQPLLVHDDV
- method: Inhibitory activity against c-kit autophosphorylation (MO7e cells, h-SCF)
- Format: cell-based
- condition-context: Mo7e, figure within parentheses in −( ) or >1000( ); at 1000 nM
result-type: inhibition at 1 µM (%)

Known results for compounds:
COc1cc2nccc(Oc3ccc(NC(=O)NC4CC(C)(C)NC(C)(C)C4)cc3)c2cc1OC [Example 562]; 27
COc1cc2nccc(Oc3cc(C)c(NC(=O)NC4CCN(Cc5ccccc5)CC4)cc3C)c2cc1OC [Example 634]; 13

(A) COc1cc2nccc(Oc3ccc(NC(=S)NC(=O)C(C)Oc4ccccc4Cl)cc3)c2cc1OC (centres unmarked) [Example 763]
(B) COc1cc2nccc(Oc3cc(C)c(NC(=O)NCCN(C(C)C)C(C)C)cc3C)c2cc1OC [Example 671]
Smaller inhibition at 1 µM value, A vs B ? Please indicate the selected item by its label.
B

* * *

- target-or-system: PDGF-Ra (Homo sapiens)
- Construct: host or cells: G-292 human osteosarcoma cells
- method: Inhibitory activity against PDGF-Ra phosphorylation by PDGF-AA stimulation using G292
- Format: cell-based
- condition-context: > means inhibition at indicated concentration not more than 50%, < and << not less than 50%; read-out: PDGF (E) IC50
pIC50: −log10 of the molar value.
result-type: pIC50

Use these answered entries as a reference point.
COc1cc2nccc(Oc3ccc(NC(=O)NC4CCN(Cc5ccccc5C)C4)c(C)c3C)c2cc1OC (centres unmarked); 7.19
COc1cc2ncnc(Oc3ccc(NC(=S)NC(=O)c4ccccc4C)cc3)c2cc1OC; 8.30
COc1ccc(OCCCOc2ccc(Oc3ccnc4cc(OC)c(OC)cc34)cc2)cc1; 7.85
CCCC1CCC(C(=O)NC(=S)Nc2ccc(Oc3ncnc4cc(OC)c(OC)cc34)cc2)CC1 (centres unmarked); 7.60

(P) COc1cc2nccc(Oc3ccc(NC(=S)NC(=O)c4ccccc4C(F)(F)F)cc3F)c2cc1OC
(Q) COc1cc2nccc(Oc3ccc(NC(=S)NC(=O)c4ccc5c(c4)OCO5)cc3)c2cc1OC
(R) CCN(CC)CCNC(=O)Nc1ccc(Oc2ncnc3cc(OC)c(OC)cc23)cc1Cl
(S) COc1cc2ncnc(Oc3ccc(NC(=S)NCCCN4CCCC4=O)cc3)c2cc1OC
Exam item: list the entries in increasing order of pIC50. Could you list the labels in the order requested?
P, S, R, Q

(1) COc1cc2ncnc(Oc3ccc(NC(=O)NC4CCN(Cc5ccccc5Cl)C4)cc3)c2cc1OC (centres unmarked)
(2) COc1cc2nccc(Oc3ccc(NC(=S)NC(=O)c4ccc(C)s4)cc3)c2cc1OC
Compare the recorded pIC50 of 1 and 2 ; state which is larger. I would appreciate it if you answered with the label of your choice.
1

(1) COc1cc2ncnc(Oc3ccc(NC(=O)N[C@H]4CCN(Cc5ccccc5)C4)c([N+](=O)[O-])c3)c2cc1OC
(2) COc1cc2nccc(Oc3ccc(NC(=S)NC(=O)CCc4ccccc4C)cc3Cl)c2cc1OC
(3) COc1cc2nccc(Oc3ccc(NC(=S)NC(=O)Cc4ccccc4)cc3Cl)c2cc1OC
Arrange these molecules by their pIC50, starting with the largest number. Answer format: list of labels, ordered as asked.
3, 1, 2
(3: 8.00, 1: 7.74, 2: 7.32)

(P) COc1cc2ncnc(Oc3ccc(N(C)C(=O)OC4CCCCCC4)cc3)c2cc1OC
(Q) COc1cc2ncnc(Oc3ccc(NC(=S)NCCN(C)C)cc3)c2cc1OC [Example 559]
(R) COc1ccc(CCC(=O)NC(=S)Nc2ccc(Oc3ncnc4cc(OC)c(OC)cc34)cc2)cc1OC
Could you please order the items by pIC50, going from the lowest number to the highest? Please, when replying, give the labels in the order that was requested.
R, Q, P

* * *

- target-or-system: PDGF-Ra (Homo sapiens, UniProt P16234)
- Construct: host or cells: G-292 human osteosarcoma cells
- Sequence (P16234 24-1089): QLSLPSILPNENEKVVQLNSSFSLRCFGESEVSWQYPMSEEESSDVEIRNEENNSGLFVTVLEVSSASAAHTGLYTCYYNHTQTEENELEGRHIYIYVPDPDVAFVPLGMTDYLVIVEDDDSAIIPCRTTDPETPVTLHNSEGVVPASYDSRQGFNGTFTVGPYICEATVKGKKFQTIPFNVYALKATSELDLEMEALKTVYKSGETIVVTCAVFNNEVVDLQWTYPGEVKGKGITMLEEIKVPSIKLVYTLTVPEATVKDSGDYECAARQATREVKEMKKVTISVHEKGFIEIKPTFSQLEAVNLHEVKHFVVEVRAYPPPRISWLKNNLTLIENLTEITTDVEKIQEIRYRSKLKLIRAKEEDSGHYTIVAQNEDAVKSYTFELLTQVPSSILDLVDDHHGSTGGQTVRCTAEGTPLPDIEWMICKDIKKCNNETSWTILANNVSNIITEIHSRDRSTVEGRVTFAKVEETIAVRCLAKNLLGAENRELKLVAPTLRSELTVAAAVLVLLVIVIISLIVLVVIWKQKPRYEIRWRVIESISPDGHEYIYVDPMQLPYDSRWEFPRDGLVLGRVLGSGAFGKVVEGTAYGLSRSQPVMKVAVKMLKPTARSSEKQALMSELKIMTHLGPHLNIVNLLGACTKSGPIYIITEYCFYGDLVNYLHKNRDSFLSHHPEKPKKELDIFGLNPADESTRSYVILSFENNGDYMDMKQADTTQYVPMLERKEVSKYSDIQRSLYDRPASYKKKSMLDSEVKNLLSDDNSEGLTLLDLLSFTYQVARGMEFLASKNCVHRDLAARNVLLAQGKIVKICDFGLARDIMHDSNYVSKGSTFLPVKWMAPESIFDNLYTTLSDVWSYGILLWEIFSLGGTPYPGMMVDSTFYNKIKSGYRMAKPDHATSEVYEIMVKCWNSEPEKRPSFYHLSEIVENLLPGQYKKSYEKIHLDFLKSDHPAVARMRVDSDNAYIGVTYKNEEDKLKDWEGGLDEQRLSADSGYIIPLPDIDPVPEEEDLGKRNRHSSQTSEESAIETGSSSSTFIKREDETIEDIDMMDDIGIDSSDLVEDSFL
- method: Inhibitory activity against PDGF-Ra phosphorylation by PDGF-AA stimulation using G292
- Type: cell-based
- condition-context: G292; figure in parentheses in >100( ); at 100 nM; read-out: PDGF (E) inhibition (%) at 100 nM
result-type: inhibition at 0.1 µM (%)

COc1ccc(C(C)OC(=O)Nc2ccc(Oc3ncnc4cc(OC)c(OC)cc34)cc2Cl)cc1 (centres unmarked); 34

(P) COc1cc2nccc(Oc3ccc(NC(=S)NC(=O)c4ccc5c(c4)OCO5)cc3Cl)c2cc1OC
(Q) CCN(C(=S)NC(=O)C1CC1c1ccccc1)c1ccc(Oc2ccnc3cc(OC)c(OC)cc23)cc1 (centres unmarked)
# query: argmin of inhibition at 0.1 µM over P and Q Answer format: the label of the selected item.
Q

* * *

- target-or-system: c-kit (Homo sapiens)
- Construct: MO7e (human megakaryocytic leukemia cell line) which had been arrested for 20 hr; endogenous in cells; host or cells: MO7e human megakaryocytic leukemia cell line
- method: Inhibitory activity against c-kit autophosphorylation (MO7e cells, h-SCF)
- Type: cell-based
- condition-context: Mo7e, figure in parentheses in −( ); at 1000 nM
result-type: inhibition at 1 µM (%)

Guide cases for inhibition at 1 µM, answers given:
COc1cc2nccc(Oc3ccc(NC(=S)NC(=O)c4cccc(C)c4)c(C)c3C)c2cc1OC; 25
COc1cc2nccc(Oc3ccc(NC(=S)NC(=O)c4ccc(F)cc4F)cc3Cl)c2cc1OC; 22

(a) CCCCCCCCc1ccc(C(=O)NC(=S)Nc2ccc(Oc3ccnc4cc(OC)c(OC)cc34)cc2)cc1
(b) COc1cc2nccc(Oc3ccc(S(=O)(=O)CCOc4ccc(F)cc4)cc3)c2cc1OC
Please indicate which item has the smaller measured inhibition at 1 µM: a versus b Indicate which entry you chose by stating its label.
b

* * *

- target-or-system: c-kit (Homo sapiens)
- Construct: MO7e (human megakaryocytic leukemia cell line) which had been arrested for 20 hr; endogenous in cells; host or cells: MO7e human megakaryocytic leukemia cell line
- method: Inhibitory activity against c-kit autophosphorylation (MO7e cells, h-SCF)
- Assay type: cell-based
- condition-context: MO7e cells, 50 ng/ml h-SCF; read-out: c-kit IC50
pIC50: −log10 of the molar value.
result-type: pIC50

CCCCCCOC(=O)Nc1ccc(Oc2ncnc3cc(OC)c(OC)cc23)cc1[N+](=O)[O-]; 6.79
COc1cc2nccc(Oc3ccc(NC(=O)NC4CCN(Cc5ccccc5C)C4)cc3)c2cc1OC (stereo not shown); 6.83
COc1cc2nccc(Oc3cc(C)c(NC(=O)NCCN4CCCCC4)cc3C)c2cc1OC; 6.07

(a) COc1cc2ncnc(Oc3ccc(NC(=O)NCCN(C)C)cc3)c2cc1OC
(b) CCCC(CCN1CCOCC1)OC(=O)Nc1ccc(Oc2ncnc3cc(OC)c(OC)cc23)cc1 (stereo not shown)
(c) COc1cc2nccc(Oc3ccc(OCCCOc4cccc(C)c4)cc3)c2cc1OC
(d) COc1cc2ncnc(Oc3ccc(N(C)C(=O)OC4CCCCCC4)cc3)c2cc1OC
Arrange these compounds by their pIC50, starting with the largest number. Return the labels ranked in the requested order, please.
d, c, b, a
(d: 6.90, c: 6.68, b: 6.45, a: 6.11)

(1) COc1cc(Oc2ncnc3cc(OC)c(OC)cc23)ccc1NC(=O)NCCN(C(C)C)C(C)C
(2) CCN(CCNC(=O)Nc1ccc(Oc2ccnc3cc(OC)c(OC)cc23)cc1Cl)c1cccc(C)c1
(3) COc1cc2ncnc(Oc3ccc(NC(=O)NC4CCN(Cc5ccccc5)CC4)c([N+](=O)[O-])c3)c2cc1OC [Example 606]
Sort ascending by pIC50. Form field (ranking): labels in requested order.
1, 3, 2

(A) COc1cc2ncnc(Oc3ccc(NC(=O)OCC4CCCCCC4)c([N+](=O)[O-])c3)c2cc1OC
(B) CCN(CC)CCCOC(=O)Nc1ccc(Oc2ccnc3cc(OC)c(OC)cc23)c(C)c1C
(C) COc1cc2ncnc(Oc3ccc(NC(=O)N[C@@H]4CCN(Cc5ccccc5)C4)c(Cl)c3)c2cc1OC
Hey, quick one: sort these by pIC50, largest value first please. Please list the labels in the order you were asked to rank them.
B, A, C
